tested on: Pyricularia oryzae; assay: Growth inhibition of Magnaporthe oryzae at 50 ug/ml after 4 days by poisoned food technique; format: functional; conditions: 96 h, read-out: GI
Task for the reader: assign each of the following compounds its reported inhibition of growth at 50 µg/mL.
Answer with the number, then the unit.

Sample answers from the record:
* Cc1cccc(Oc2ccc([N+](=O)[O-])cc2)c1 | 39.2%
* O=[N+]([O-])c1ccccc1Oc1ccccc1 | 58%
* Cc1cc(O)no1 | 66.4%
* CC(C)(C)c1ccc(Oc2ccccc2C#N)cc1 | 43.7%

Now, please, on to the next compound.
Ask: Give the reported value of inhibition of growth at 50 µg/mL for this record: Cc1cccc(Oc2ccccc2[N+](=O)[O-])c1
Reply: 56.3%
